Biological target: T1, soluble KIR3DL1*033-Fc (human, UniProt P43629 22-340)
T1 construct: also called KIR3DL1 allele 033; Allele 033; not shown: Fc domain
T1 sequence (P43629 other isoform, or with tags, fused parts or gaps): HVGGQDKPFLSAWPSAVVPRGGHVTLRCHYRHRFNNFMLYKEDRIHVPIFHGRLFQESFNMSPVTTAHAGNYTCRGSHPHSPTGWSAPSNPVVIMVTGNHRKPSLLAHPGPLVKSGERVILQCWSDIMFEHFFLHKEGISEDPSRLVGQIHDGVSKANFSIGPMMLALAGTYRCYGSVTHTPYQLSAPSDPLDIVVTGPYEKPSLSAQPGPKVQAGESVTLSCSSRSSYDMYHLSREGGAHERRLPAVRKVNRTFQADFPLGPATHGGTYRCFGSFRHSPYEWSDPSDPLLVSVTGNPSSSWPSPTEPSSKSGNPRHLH
Assay: BLI (ForteBio QK), hIgG1
metric: Kd

Could you share which Kd value was measured for ET160-61 (antibody, human IgG1, V domains shown, Tested as human IgG1 (hIgG1), lambda light chain) VH: QVQLVESGGGLVQPGRSLRLSCAASGFTFDDYAMHWVRQAPGKGLEWVSGISWNSGSIGYADSVKGRFTISRDNAKNSLYLQMNSLRAEDTAVYYCASSLRYFEWPIDYWGQGTLVTVSS VL: NFMLTQPLSVSESPGKTVTISCTANGGSLASKYVQWFQQRPGSSPTTVIYDDNLRPSGVPDRFSGSIDTSSNSAALTISGLKTEDEADYYCQSYDNSSVVFGGGTKLTVLG ?
22.7 nM
